- study system: T1, full-length human GPC3 (human, UniProt P51654 25-554)
- T1 construct: On CHO (DXB11) or SK-HEP-1 (SK-03) transfectants; also used here for the GPC3 on the hepatoma lines HepG2 and HuH-7; also called human glypican 3
- T1 sequence (P51654 25-554 limits assumed): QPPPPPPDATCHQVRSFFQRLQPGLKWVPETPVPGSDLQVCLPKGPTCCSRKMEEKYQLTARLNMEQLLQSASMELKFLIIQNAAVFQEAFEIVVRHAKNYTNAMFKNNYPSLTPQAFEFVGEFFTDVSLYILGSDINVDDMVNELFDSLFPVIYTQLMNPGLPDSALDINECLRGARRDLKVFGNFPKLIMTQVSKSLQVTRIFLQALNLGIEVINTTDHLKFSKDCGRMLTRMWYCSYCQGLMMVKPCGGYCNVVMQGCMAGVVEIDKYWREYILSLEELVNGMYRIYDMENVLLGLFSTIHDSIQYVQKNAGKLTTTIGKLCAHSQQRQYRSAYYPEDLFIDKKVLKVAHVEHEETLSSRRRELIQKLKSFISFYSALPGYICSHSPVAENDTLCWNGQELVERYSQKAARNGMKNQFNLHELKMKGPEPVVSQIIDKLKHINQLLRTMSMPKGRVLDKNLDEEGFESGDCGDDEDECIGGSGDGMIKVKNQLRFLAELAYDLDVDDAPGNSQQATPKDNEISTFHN
- procedure text: BIACORE; the form of GPC3 used is not given
observation type: kon (M⁻¹ s⁻¹)
Express your answer in M⁻¹ s⁻¹, writing the number without its unit.

These solved cases illustrate the format of a correct answer.
M10D2 (antibody, V domains shown, Mouse monoclonal from hybridoma) VH: QVQLQQPGAELVKPGASVKLSCKASGYTFTSYWMHWVKQRPGQGLEWIGEIDPSDSYTYYNQKFRGKATLTVDKSSNTAYMQLSSLTSEDSAVYYCSRSNLGDGHYRFPAFPYWGQGTLVTVSA VL: DIVLTQSPATLSVTPGDRVSLSCRASHSISNFLHWYPQKSHESPRLLIKYASQSISGIPSRFSGNGSGTDFTLSINSVETEDFGMYFCQQSNIWSLTFGAGTKLELK :: 110000
M18D4 (antibody, human IgG1, kappa, V domains shown, Mouse monoclonal from hybridoma) VH: EVQLQQSGTVLARPGASVKMSCKASGYTFTGYWMRWVKQRPGQGLEWIGAIYPGNSDTTYNQKFKGKAKLTAVTSVSTAYMELSSLTNEDSAVYYCSRSGDLTGGFAYWGQGTLVTVST VL: DIVMTQAAFSNPVTLGTSTSISCRSSKSLLHSNGITYLYWYLQKPGQSPQLLIYQMSNLASGVPDRFSSSGSGTDFTLRISRVEAEDVGVYYCAQNLELPYTFGSGTKLEIKR :: 80000

Next binder, please.
Return value of kon for input M11F1 (antibody, V domains shown, Mouse monoclonal from hybridoma) VH: QVTLKESGPGILQPSQTLSLTCSFSGFSLSIYGMGVGWIRQPSGKGLEWLANIWWNDDKYYNSALKSRLTISKDTSNNQVFLKISSVDTADTATYYCAQIGYFYFDYWGQGTTLTVSS VL: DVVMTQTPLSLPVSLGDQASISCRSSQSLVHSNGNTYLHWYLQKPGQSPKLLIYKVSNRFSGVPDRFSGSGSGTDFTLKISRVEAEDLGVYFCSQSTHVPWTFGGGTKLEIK , no commentary.
140000
